# condition-description: buffer; pH 7.4; 200.0 µM
property-name: solubility kinetic

What the record says about `COc1ccccc1OCC#CCSc1ncccn1` : solubility kinetic is > 43 µg/mL

So for `O=C(NCc1ccccc1Cl)c1cnccc1C(F)(F)F` , the logged solubility kinetic turned out to be > 47.2 µg/mL

Field solubility kinetic (entry COc1ccc(NC2CCCN(C(=O)c3ccncc3)C2)cc1 (stereo not given) ) reads > 46.7 µg/mL

Consider O=C(Nc1cc([N+](=O)[O-])ccc1O)NC1CCS(=O)(=O)C1 (stereo not given) . Its measured solubility kinetic is > 47.3 µg/mL

So, `Nc1nc(SCC(=O)Nc2ccc([N+](=O)[O-])cc2)n[nH]1` ? Its solubility kinetic was > 44.1 µg/mL

// recorded solubility kinetic for `Cc1ccsc1/C=N/Nc1ncnc2nc[nH]c12` : > 38.7 µg/mL

The value of solubility kinetic measured for the molecule `CN(CC(=O)NCc1ccccc1Cl)CC(=O)Nc1cccc(F)c1` turned out to be > 54.6 µg/mL

Kindly note the recorded solubility kinetic for Cc1ccc(S(=O)(=O)NCC(C)NC(=O)CN2CCOCC2)cc1 (stereo not given) , which is > 53.3 µg/mL

Notebook: `COc1ccc(-c2c(C(F)(F)F)nn(C)c2NC(=O)c2ccco2)cc1` , solubility kinetic read as > 54.8 µg/mL

Form: molecule = Cc1cc(=O)[nH]c(SCC(=O)N2CC3(C)CC2CC(C)(C)C3)n1 (stereo not given) ; solubility kinetic = > 50.3 µg/mL

Recorded solubility kinetic (molecule CC(O)c1ccc(Oc2cnccn2)cc1 (stereo not given) ): > 32.4 µg/mL

Entry `Cc1ccc(NC(=O)NCCCN2CCCC2=O)c(C)c1` , solubility kinetic reported as > 43.4 µg/mL

molecule O=C(Nc1ccncc1)C1CC(=O)N(Cc2ccccc2)C1 (stereo not given) , solubility kinetic observed: > 44.3 µg/mL

response.value for `COc1ccccc1C(=O)NCCC(=O)NC1CCCCCC1` (field: solubility kinetic) = > 47.8 µg/mL

// sample `Clc1ccc(COn2ccnc2)cc1Cl` , its solubility kinetic was > 36.5 µg/mL

Reference for the values: PubChem BioAssay AID1996
